// inhibition in vivo at 25 mg/kg lookup, one value per entry
tested on: Rattus norvegicus; test: Hypoglycemic activity in fasted glucose primed Sprague-Dawley rat assessed as plasma glucose level at 25 mg/kg administered via oral gavage measured after 2 hrs by glucose-oxidase method relative to control; type: functional
measured_quantity: inhibition in vivo at 25 mg/kg (%)

c1ccc(C(/N=C2\CCCCCCN2)c2cccs2)cc1 (centres undefined) = 37
Cc1ccc(C(/N=C2\CCCCCN2)C2CC2)c(C)c1 (centres undefined) = 29
c1ccc(C(/N=C2\CCCCN2)c2cccs2)cc1 (centres undefined) = 31
c1ccc(C(/N=C2\CCCCCCN2)C2CC2)cc1 (centres undefined) = 26
CCCCNC(=O)NS(=O)(=O)c1ccc(C)cc1 [TOLBUTAMIDE] = 29
c1ccc(C(/N=C2\CCCCCN2)C2CC2)cc1 (centres undefined) = 18
c1ccc(C(/N=C2\CCCCCCN2)c2ccco2)cc1 (centres undefined) = 29
c1ccc(C(/N=C2\CCCCN2)C2CC2)cc1 (centres undefined) = 23
c1ccc(C(/N=C2\CCCCCN2)c2cccs2)cc1 (centres undefined) = 36
Cc1ccc(C(/N=C2\CCCCCCCN2)C2CC2)c(C)c1 (centres undefined) = 37
c1ccc(C(/N=C2\CCCCN2)c2ccco2)cc1 (centres undefined) = 10
c1ccc(C(/N=C2\CCCCN2)c2ccccc2)cc1 = 42
C1CCN/C(=N/[C@@H]2CCC[C@@H]2C2CCCCC2)CC1 = 42
c1ccc(C(/N=C2\CCCCCN2)c2ccco2)cc1 (centres undefined) = 34
